Observation type: melting point

INPUT: Respond only with melting point recorded for CC(C)CCC[C@@H](C)C1CCC2[C@@H]3CC=C4C[C@@H](OC(=O)N5CCc6ccccc65)CC[C@]4(C)[C@H]3CC[C@]12C (stereo partly shown)
OUTPUT: 142 to 145 °C

###

Tested on: S. aureus strain ATCC 29740
Assay details: Biofilm inhibition, crystal violet assay
Type: cell-based
Stated conditions: Staphylococcus aureus, ATCC29740; S. aureus ATCC 29740
Observation type: IC50 (µM)
Numbers only; they are read as µM.

| Record smiles | Observation type | Unit info | Observed |
| --- | --- | --- | --- |
| CC(C)[C@@H]1CC[C@@H](C)C[C@H]1OC(=O)NCCc1ccccn1 | IC50 | µM | 82.2 |

// moving on: another record for IC50
INPUT: Provide IC50, recorded with S. aureus strain ATCC 29740, of CC(C)[C@@H]1CC[C@@H](C)C[C@H]1OC(=O)NCCc1ccc(N)cc1
OUTPUT: 24.3

###

This section presents compounds with their documented melting point values.

INPUT: Respond only with melting point recorded for CC(C)[C@@H]1CC[C@@H](C)C[C@H]1OC(=O)NCCc1ccccn1
OUTPUT: 59 to 63 °C

INPUT: Respond only with melting point recorded for CC(C)CCC[C@@H](C)C1CCC2[C@@H]3CC=C4C[C@@H](OC(=O)NCCc5ccc(N)cc5)CC[C@]4(C)[C@H]3CC[C@]12C (stereo partly drawn)
OUTPUT: 135 to 139 °C

INPUT: Respond only with melting point recorded for CC(C)[C@H]1CC[C@H](C)C[C@@H]1OC(=O)NCCc1ccccn1
OUTPUT: 57 to 59 °C
